Value source: patent US20250152746A1

- System: PCSK9 gene
- assayProcedure: PCSK9 gRNA/SpCas9 editing in primary human hepatocytes (Tables 2, 4)
- Assay type: cell-based
- measurementParameters: 500 ng/RNA/mL; SpCas9 mRNA MS002 1:1 by weight
In the oligonucleotide strings, read from the 5' end, every base follows the letter of its sugar. An asterisk marks phosphorothioate; unmarked linkages are phosphodiester. Other units and linkages are bracketed, terminal groups are in braces. A string of capitals states the bases alone. m = 2'-O-methyl; r = 2'-OH (RNA)
Label label 1 when Human Primary Hepatocyte Editing % 500 is at or above 10%; anything below gets label 0.

# molecule, assignedLabel
data = [
    ("GA177: PCSK9 gRNA; protospacer GGTCGCCACTCATCTTCACC (SEQ ID NO: 171) (nucleic acid, sugars from the 5' end m3 r94 m3, linkages s3 o93 s3 (s phosphorothioate, o phosphodiester), T or U not given here) guide: GGUCGCCACUCAUCUUCACCGUUUUAGAGCUAGAAAUAGCAAGUUAAAAUAAGGCUAGUCCGUUAUCAACUUGAAAAAGUGGCACCGAGUCGGUGCUUUU", "label 0"),
    ("GA194: PCSK9 gRNA; protospacer GTCGACATGGGGCAACTTCA (SEQ ID NO: 188) (nucleic acid, sugars from the 5' end m3 r94 m3, linkages s3 o93 s3 (s phosphorothioate, o phosphodiester), T or U not given here) guide: GUCGACAUGGGGCAACUUCAGUUUUAGAGCUAGAAAUAGCAAGUUAAAAUAAGGCUAGUCCGUUAUCAACUUGAAAAAGUGGCACCGAGUCGGUGCUUUU", "label 1"),
    ("GA173: PCSK9 gRNA; protospacer CTTGGTGAGGTATCCCCGGC (SEQ ID NO: 167) (nucleic acid, sugars from the 5' end m3 r94 m3, linkages s3 o93 s3 (s phosphorothioate, o phosphodiester), T or U not given here) guide: CUUGGUGAGGUAUCCCCGGCGUUUUAGAGCUAGAAAUAGCAAGUUAAAAUAAGGCUAGUCCGUUAUCAACUUGAAAAAGUGGCACCGAGUCGGUGCUUUU", "label 0"),
    ("GA188: PCSK9 gRNA; protospacer TATTCATCCGCCCGGTACCG (SEQ ID NO: 182) (nucleic acid) guide: mU*mA*mU*rUrCrArUrCrCrGrCrCrCrGrGrUrArCrCrGrGrUrUrUrUrArGrArGrCrUrArGrArArArUrArGrCrArArGrUrUrArArArArUrArArGrGrCrUrArGrUrCrCrGrUrUrArUrCrArArCrUrUrGrArArArArArGrUrGrGrCrArCrCrGrArGrUrCrGrGrUrGrCrU*mU*mU*mU", "label 1"),
    ("GA170: PCSK9 gRNA; protospacer CCAGGACCGCCTGGAGCTGA (SEQ ID NO: 164) (nucleic acid, sugars from the 5' end m3 r94 m3, linkages s3 o93 s3 (s phosphorothioate, o phosphodiester), T or U not given here) guide: CCAGGACCGCCUGGAGCUGAGUUUUAGAGCUAGAAAUAGCAAGUUAAAAUAAGGCUAGUCCGUUAUCAACUUGAAAAAGUGGCACCGAGUCGGUGCUUUU", "label 1"),
    ("GA236: PCSK9 gRNA; protospacer AGCCCTCGCCAGGCGCTGGC (SEQ ID NO: 229) (nucleic acid, sugars from the 5' end m3 r94 m3, linkages s3 o93 s3 (s phosphorothioate, o phosphodiester), T or U not given here) guide: AGCCCUCGCCAGGCGCUGGCGUUUUAGAGCUAGAAAUAGCAAGUUAAAAUAAGGCUAGUCCGUUAUCAACUUGAAAAAGUGGCACCGAGUCGGUGCUUUU", "label 0"),
    ("GA203: PCSK9 gRNA; protospacer TGACCCTGCCCTCGATTTCC (SEQ ID NO: 197) (nucleic acid, sugars from the 5' end m3 r94 m3, linkages s3 o93 s3 (s phosphorothioate, o phosphodiester), T or U not given here) guide: UGACCCUGCCCUCGAUUUCCGUUUUAGAGCUAGAAAUAGCAAGUUAAAAUAAGGCUAGUCCGUUAUCAACUUGAAAAAGUGGCACCGAGUCGGUGCUUUU", "label 1"),
    ("GA165: PCSK9 gRNA; protospacer CCGTCAGCTCCAGGCGGTCC (SEQ ID NO: 159) (nucleic acid, sugars from the 5' end m3 r94 m3, linkages s3 o93 s3 (s phosphorothioate, o phosphodiester), T or U not given here) guide: CCGUCAGCUCCAGGCGGUCCGUUUUAGAGCUAGAAAUAGCAAGUUAAAAUAAGGCUAGUCCGUUAUCAACUUGAAAAAGUGGCACCGAGUCGGUGCUUUU", "label 1"),
    ("GA200: PCSK9 gRNA; protospacer CTAGGAGATACACCTCCACC (SEQ ID NO: 194) (nucleic acid, sugars from the 5' end m3 r94 m3, linkages s3 o93 s3 (s phosphorothioate, o phosphodiester), T or U not given here) guide: CUAGGAGAUACACCUCCACCGUUUUAGAGCUAGAAAUAGCAAGUUAAAAUAAGGCUAGUCCGUUAUCAACUUGAAAAAGUGGCACCGAGUCGGUGCUUUU", "label 0"),
    ("GA240: PCSK9 gRNA; protospacer TGCCAGCGCCTGGCGAGGGC (SEQ ID NO: 233) (nucleic acid, sugars from the 5' end m3 r94 m3, linkages s3 o93 s3 (s phosphorothioate, o phosphodiester), T or U not given here) guide: UGCCAGCGCCUGGCGAGGGCGUUUUAGAGCUAGAAAUAGCAAGUUAAAAUAAGGCUAGUCCGUUAUCAACUUGAAAAAGUGGCACCGAGUCGGUGCUUUU", "label 0"),
]
